Assayed system: LFA-1 binding to ICAM-1 (Homo sapiens, UniProt P05107+P20701)
Sequence (P20701 26-1170): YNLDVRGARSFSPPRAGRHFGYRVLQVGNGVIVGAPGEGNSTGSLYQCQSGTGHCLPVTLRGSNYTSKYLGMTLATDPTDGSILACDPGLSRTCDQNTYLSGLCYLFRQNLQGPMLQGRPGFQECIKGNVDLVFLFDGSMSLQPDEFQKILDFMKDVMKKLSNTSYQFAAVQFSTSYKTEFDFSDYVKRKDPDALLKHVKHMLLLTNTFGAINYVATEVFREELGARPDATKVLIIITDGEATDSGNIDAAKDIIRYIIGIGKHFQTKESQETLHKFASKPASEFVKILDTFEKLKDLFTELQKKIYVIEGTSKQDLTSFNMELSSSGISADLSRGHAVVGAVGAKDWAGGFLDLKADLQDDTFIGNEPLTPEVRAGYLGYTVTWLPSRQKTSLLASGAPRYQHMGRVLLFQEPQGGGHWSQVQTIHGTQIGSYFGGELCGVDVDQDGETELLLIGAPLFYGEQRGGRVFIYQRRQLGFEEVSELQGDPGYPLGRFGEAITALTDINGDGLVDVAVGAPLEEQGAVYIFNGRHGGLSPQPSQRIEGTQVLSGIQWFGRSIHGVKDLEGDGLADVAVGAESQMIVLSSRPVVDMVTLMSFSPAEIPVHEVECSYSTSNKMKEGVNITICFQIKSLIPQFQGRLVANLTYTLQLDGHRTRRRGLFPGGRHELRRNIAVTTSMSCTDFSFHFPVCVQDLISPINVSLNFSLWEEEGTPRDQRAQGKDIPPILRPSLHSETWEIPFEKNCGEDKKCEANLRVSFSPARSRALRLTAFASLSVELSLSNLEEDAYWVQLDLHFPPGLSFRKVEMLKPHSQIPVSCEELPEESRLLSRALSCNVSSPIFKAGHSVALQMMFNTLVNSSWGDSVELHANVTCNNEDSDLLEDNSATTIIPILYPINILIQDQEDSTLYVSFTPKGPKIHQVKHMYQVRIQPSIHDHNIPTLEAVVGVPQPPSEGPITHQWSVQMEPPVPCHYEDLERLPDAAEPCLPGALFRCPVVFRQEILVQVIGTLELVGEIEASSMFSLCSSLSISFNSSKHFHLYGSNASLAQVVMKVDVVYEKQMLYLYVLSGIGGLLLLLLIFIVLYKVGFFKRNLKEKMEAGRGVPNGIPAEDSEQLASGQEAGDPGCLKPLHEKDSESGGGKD
Sequence (P05107 23-769): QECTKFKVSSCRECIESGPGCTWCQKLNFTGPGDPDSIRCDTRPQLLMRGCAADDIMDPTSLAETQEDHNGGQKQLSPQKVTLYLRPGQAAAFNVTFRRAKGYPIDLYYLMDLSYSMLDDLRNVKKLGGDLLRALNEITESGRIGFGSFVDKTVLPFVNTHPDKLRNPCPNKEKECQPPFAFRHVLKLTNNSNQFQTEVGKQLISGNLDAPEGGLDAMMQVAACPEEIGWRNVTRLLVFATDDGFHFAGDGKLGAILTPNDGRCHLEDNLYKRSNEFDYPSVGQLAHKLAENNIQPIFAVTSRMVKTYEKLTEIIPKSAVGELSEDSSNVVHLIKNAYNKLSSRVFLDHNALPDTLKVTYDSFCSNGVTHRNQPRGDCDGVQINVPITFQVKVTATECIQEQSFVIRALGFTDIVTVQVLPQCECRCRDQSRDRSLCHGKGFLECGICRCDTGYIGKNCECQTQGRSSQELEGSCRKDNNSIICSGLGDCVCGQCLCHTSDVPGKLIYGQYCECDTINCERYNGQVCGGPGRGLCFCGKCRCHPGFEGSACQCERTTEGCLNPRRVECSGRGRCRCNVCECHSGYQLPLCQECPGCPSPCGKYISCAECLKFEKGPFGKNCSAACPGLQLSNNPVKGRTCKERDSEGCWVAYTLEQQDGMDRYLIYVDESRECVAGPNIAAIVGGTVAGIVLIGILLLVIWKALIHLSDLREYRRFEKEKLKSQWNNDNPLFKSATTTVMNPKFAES
Experiment summary: Inhibition of LFA-1 binding to ICAM-1 (LFA-1/Biotin-sICAM-1 AlphaScreen molecular assay)
Experimental setup: highest compound concentration 1 μM in 1% DMSO, 37° C., 90 minutes
pIC50: −log10 of the molar value.
Reported endpoint: pIC50

>  <Compound>
C[C@@]1(Cc2ccc(C#N)cc2)C(=O)N(c2cc(Cl)cc(Cl)c2)c2ncc(C(=O)NC3(C(=O)NC4(c5cc(C(=O)N6CCCCC6)ccn5)CC4)CC3)n21 [compound 110]

>  <Assayed system>
LFA-1 binding to ICAM-1 (Homo sapiens, UniProt P05107+P20701)

>  <Reported value>
8.47

$$$$
>  <Compound>
C[C@@H](CO)NC(=O)c1ccnc(C2(NC(=O)C3(NC(=O)c4cnc5n4[C@](C)(Cc4ccc(C#N)cc4)C(=O)N5c4cc(Cl)cc(Cl)c4)CC3)CC2)c1 [compound 17]

>  <Assayed system>
LFA-1 binding to ICAM-1 (Homo sapiens, UniProt P05107+P20701)

>  <Reported value>
9.74

$$$$
>  <Compound>
C[C@@]1(Cc2ccc(C#N)cc2)C(=O)N(c2cc(Cl)cc(Cl)c2)c2ncc(C(=O)NC3(C(=O)NC4(c5ccc(C(=O)NCc6cccnc6)cn5)CC4)CC3)n21 [compound 21]

>  <Assayed system>
LFA-1 binding to ICAM-1 (Homo sapiens, UniProt P05107+P20701)

>  <Reported value>
9.09

$$$$
>  <Compound>
C[C@@]1(Cc2ccc(C#N)cc2)C(=O)N(c2cc(Cl)cc(Cl)c2)c2ncc(C(=O)NC3(C(=O)NC4(c5cccc(C(=O)N6CCCC6)n5)CC4)CC3)n21 [compound 11]

>  <Assayed system>
LFA-1 binding to ICAM-1 (Homo sapiens, UniProt P05107+P20701)

>  <Reported value>
8.47

$$$$
>  <Compound>
C[C@@]1(Cc2ccc(C#N)cc2)C(=O)N(c2cc(Cl)cc(Cl)c2)c2ncc(C(=O)NC3(C(=O)NC4(c5cc(C(=O)NCC(N)=O)ccn5)CC4)CC3)n21 [compound 172]

>  <Assayed system>
LFA-1 binding to ICAM-1 (Homo sapiens, UniProt P05107+P20701)

>  <Reported value>
9.08

$$$$
>  <Compound>
C[C@@]1(Cc2ccc(C#N)cc2)C(=O)N(c2cc(Cl)cc(Cl)c2)c2ncc(C(=O)NC3(C(=O)NC4(c5ccc(C(=O)NCCc6ccccc6)cn5)CC4)CC3)n21 [compound 134]

>  <Assayed system>
LFA-1 binding to ICAM-1 (Homo sapiens, UniProt P05107+P20701)

>  <Reported value>
8.66

$$$$
>  <Compound>
C[C@@]1(Cc2ccc(C#N)cc2)C(=O)N(c2cc(Cl)cc(Cl)c2)c2ncc(C(=O)NC3(C(=O)NC4(c5cc(C(=O)NCC6CC6)ccn5)CC4)CC3)n21 [compound 142]

>  <Assayed system>
LFA-1 binding to ICAM-1 (Homo sapiens, UniProt P05107+P20701)

>  <Reported value>
8.89

$$$$
>  <Compound>
CC(C)(NC(=O)c1cccc(C2(NC(=O)C3(NC(=O)c4cnc5n4[C@](C)(Cc4ccc(C#N)cc4)C(=O)N5c4cc(Cl)cc(Cl)c4)CC3)CC2)n1)c1ccccc1 [compound 167]

>  <Assayed system>
LFA-1 binding to ICAM-1 (Homo sapiens, UniProt P05107+P20701)

>  <Reported value>
9.39

$$$$
>  <Compound>
C[C@@]1(Cc2ccc(C#N)cc2)C(=O)N(c2cc(Cl)cc(Cl)c2)c2ncc(C(=O)NC3(C(=O)NC4(c5cc(C(=O)NCCC(N)=O)ccn5)CC4)CC3)n21 [compound 107]

>  <Assayed system>
LFA-1 binding to ICAM-1 (Homo sapiens, UniProt P05107+P20701)

>  <Reported value>
9.52

$$$$
>  <Compound>
C[C@@]1(Cc2ccc(C#N)cc2)C(=O)N(c2cc(Cl)cc(Cl)c2)c2ncc(C(=O)NC3(C(=O)NC4(c5ccc(C(=O)NCCc6ccccn6)cn5)CC4)CC3)n21 [compound 93]

>  <Assayed system>
LFA-1 binding to ICAM-1 (Homo sapiens, UniProt P05107+P20701)

>  <Reported value>
9.21

$$$$
>  <Compound>
CC(=O)N(C)C1CCN(C(=O)c2cccc(C3(NC(=O)C4(NC(=O)c5cnc6n5[C@](C)(Cc5ccc(C#N)cc5)C(=O)N6c5cc(Cl)cc(Cl)c5)CC4)CC3)n2)C1 (some centres unmarked) [compound 45]

>  <Assayed system>
LFA-1 binding to ICAM-1 (Homo sapiens, UniProt P05107+P20701)

>  <Reported value>
8.35

$$$$

Hey, just so you know, these numbers are from patent US8481750B2.
